System: MCF7
Test: Antiproliferative activity against Homo sapiens (human) MCF7 cells after 72 hr by SRB assay
Assay type: functional
Conditions: MCF7, 72 h, read-out: ID50 (the source's name)

[
  {
    "COMPOUND": "COc1cc(O)c(CC=C(C)C)c2c1C(=O)CC(c1ccc(O)cc1)O2 (configuration not stated) [ISOXANTHOHUMOL]",
    "IC50, µg/mL": 9.4
  },
  {
    "COMPOUND": "C=CCOc1ccc([C@@H]2CC(=O)c3c(OC)cc(OCC=C)c(CC=C(C)C)c3O2)cc1 [7,4'-DI-O-ALLYLISOXANTHOHUMOL]",
    "IC50, µg/mL": 5.2
  },
  {
    "COMPOUND": "COc1ccc([C@@H]2CC(=O)c3c(OC)cc(OC)c(CC=C(C)C)c3O2)cc1 [7,4'-DI-O-METHYLISOXANTHOHUMOL]",
    "IC50, µg/mL": 6.6
  },
  {
    "COMPOUND": "COc1cc(OC(C)=O)c(CC=C(C)C)c2c1C(=O)C[C@@H](c1ccc(OC(C)=O)cc1)O2 [7,4'-DI-O-ACETYLISOXANTHOHUMOL]",
    "IC50, µg/mL": 16.9
  },
  {
    "COMPOUND": "COc1ccc(C2CC(=O)c3c(O)cc(OC)c(CC=C(C)C)c3O2)cc1 (configuration not stated) [7,4'-DI-O-METHYL-8-PRENYLNARINGENIN]",
    "IC50, µg/mL": 36.9
  },
  {
    "COMPOUND": "CCCCCOc1cc(O)c2c(c1CC=C(C)C)OC(c1ccc(O)cc1)CC2=O (configuration not stated) [7-O-PENTYL-8-PRENYLNARINGENIN]",
    "IC50, µg/mL": 3.9
  },
  {
    "COMPOUND": "CCCCCOc1cc(OC)c2c(c1CC=C(C)C)O[C@H](c1ccc(O)cc1)CC2=O [7-O-N-PENTYLISOXANTHOHUMOL]",
    "IC50, µg/mL": 8.3
  }
]

Attribution: ChEMBL document CHEMBL3046444
